- System: LG0567-F671-PDC KRAS tumor spheroid viability
- assay_text: Anticancer human tumor LG0567-F671-PDC patient-derived lung adenocarcinoma cell line growth inhibition [KRAS2]
- test_context: second compound 3.16 µM; first compound 0.0316 µM; stronger effect = lower value; spheroids with HUVEC and MSC
readout_label: viability, T/C (%)
Please give a number only; it is taken to be in %.

Name the reported viability, T/C value associated with the molecule CC(=O)OC12COC1CC(O)C1(C)C(=O)C(O)C3=C(C)C(OC(=O)C(O)C(NC(=O)OC(C)(C)C)c4ccccc4)CC(O)(C(OC(=O)c4ccccc4)C21)C3(C)C (stereo not given) + CNCc1ccccc1-c1csc(C(C)Nc2nc(C)nc3cc(OC)c(OC)cc23)c1
0.94

Name the reported viability, T/C value associated with the molecule COC(=O)c1ccc2c(C(=Nc3ccc(N(C)C(=O)CN4CCN(C)CC4)cc3)c3ccccc3)c(O)[nH]c2c1 + CNCc1ccccc1-c1csc(C(C)Nc2nc(C)nc3cc(OC)c(OC)cc23)c1
1.05

Name the reported viability, T/C value associated with the molecule Cn1nccc1Nc1nccc(-c2cc3c(s2)C(C)(C)N(CCN2CCOCC2)C3=O)n1 + C=CC(=O)N1CCN(c2nc(=O)n(-c3c(C)ccnc3C(C)C)c3nc(-c4c(O)cccc4F)c(F)cc23)C(C)C1
22.2

Name the reported viability, T/C value associated with the molecule COC(=O)c1ccc2c(C(=Nc3ccc(N(C)C(=O)CN4CCN(C)CC4)cc3)c3ccccc3)c(O)[nH]c2c1 + C=CC(=O)N1CCN(c2nc(OCC3CCCN3C)nc3c2CCN(c2cccc4cccc(C)c24)C3)CC1CC#N
17.9

Name the reported viability, T/C value associated with the molecule O=C(c1cc(Cc2n[nH]c(=O)c3ccccc23)ccc1F)N1CCN(C(=O)C2CC2)CC1 + CNCc1ccccc1-c1csc(C(C)Nc2nc(C)nc3cc(OC)c(OC)cc23)c1
46.5

Name the reported viability, T/C value associated with the molecule COc1cc(Nc2ncc3c(n2)-c2ccc(Cl)cc2C(c2c(F)cccc2OC)=NC3)ccc1C(=O)O + CNCc1ccccc1-c1csc(C(C)Nc2nc(C)nc3cc(OC)c(OC)cc23)c1
12.8

Name the reported viability, T/C value associated with the molecule CC1COCCN1c1cc(-c2ccnn2C)c2ccnc(-c3ccn[nH]3)c2n1 (stereo not given) + CNCc1ccccc1-c1csc(C(C)Nc2nc(C)nc3cc(OC)c(OC)cc23)c1
58.5

Name the reported viability, T/C value associated with the molecule CC1OCC2(CCN(c3cnc(Sc4ccnc(N)c4Cl)c(N)n3)CC2)C1N (stereo not given) + COc1cc2nc(C)nc(NC(C)c3cc(N)cc(C(F)(F)F)c3)c2cc1OC1CCOC1
58.1

Name the reported viability, T/C value associated with the molecule COC(=O)c1ccc2c(C(=Nc3ccc(N(C)C(=O)CN4CCN(C)CC4)cc3)c3ccccc3)c(O)[nH]c2c1 + COc1cc2nc(C)nc(NC(C)c3cc(N)cc(C(F)(F)F)c3)c2cc1OC1CCOC1
73.8

Name the reported viability, T/C value associated with the molecule CCN1CCN(Cc2ccc(Nc3ncc(F)c(-c4cc(F)c5nc(C)n(C(C)C)c5c4)n3)nc2)CC1 + C=CC(=O)N1CCN(c2nc(OCC3CCCN3C)nc3c2CCN(c2cccc4cccc(C)c24)C3)CC1CC#N
25.6

Name the reported viability, T/C value associated with the molecule COc1cc2nccc(Oc3ccc(NC(=O)C4(C(=O)Nc5ccc(F)cc5)CC4)cc3)c2cc1OC + C=CC(=O)N1CCN(c2nc(OCC3CCCN3C)nc3c2CCN(c2cccc4cccc(C)c24)C3)CC1CC#N
13.2

Name the reported viability, T/C value associated with the molecule COc1cc(Nc2ncc3c(n2)-c2ccc(Cl)cc2C(c2c(F)cccc2OC)=NC3)ccc1C(=O)O + COc1cc2nc(C)nc(NC(C)c3cc(N)cc(C(F)(F)F)c3)c2cc1OC1CCOC1
40

Name the reported viability, T/C value associated with the molecule CC(C)NCC(C(=O)N1CCN(c2ncnc3c2C(C)CC3O)CC1)c1ccc(Cl)cc1 (stereo not given) + CC1OCC2(CCN(c3cnc(Sc4ccnc(N)c4Cl)c(N)n3)CC2)C1N
21.2

Name the reported viability, T/C value associated with the molecule CC1(C)CCC(CN2CCN(c3ccc(C(=O)NS(=O)(=O)c4ccc(NCC5CCOCC5)c([N+](=O)[O-])c4)c(Oc4cnc5[nH]ccc5c4)c3)CC2)=C(c2ccc(Cl)cc2)C1 + C=CC(=O)N1CCN(c2nc(OCC3CCCN3C)nc3c2CCN(c2cccc4cccc(C)c24)C3)CC1CC#N
21.8

Name the reported viability, T/C value associated with the molecule COc1cc(Nc2ncc3c(n2)-c2ccc(Cl)cc2C(c2c(F)cccc2OC)=NC3)ccc1C(=O)O + C=CC(=O)N1CCN(c2nc(=O)n(-c3c(C)ccnc3C(C)C)c3nc(-c4c(O)cccc4F)c(F)cc23)C(C)C1
23.8

Name the reported viability, T/C value associated with the molecule CC(C)n1nc(-c2ccc3oc(N)nc3c2)c2c(N)ncnc21 + C=CC(=O)N1CCN(c2nc(=O)n(-c3c(C)ccnc3C(C)C)c3nc(-c4c(O)cccc4F)c(F)cc23)C(C)C1
7.41

Name the reported viability, T/C value associated with the molecule CCNC(=O)CC1N=C(c2ccc(Cl)cc2)c2cc(OC)ccc2-n2c(C)nnc21 (stereo not given) + C=CC(=O)N1CCN(c2nc(OCC3CCCN3C)nc3c2CCN(c2cccc4cccc(C)c24)C3)CC1CC#N
41.3

Name the reported viability, T/C value associated with the molecule CC(C)n1nc(-c2ccc3oc(N)nc3c2)c2c(N)ncnc21 + COc1cc2nc(C)nc(NC(C)c3cc(N)cc(C(F)(F)F)c3)c2cc1OC1CCOC1
20.5

Name the reported viability, T/C value associated with the molecule CC1OCC2(CCN(c3cnc(Sc4ccnc(N)c4Cl)c(N)n3)CC2)C1N (stereo not given) + C=CC(=O)N1CCN(c2nc(=O)n(-c3c(C)ccnc3C(C)C)c3nc(-c4c(O)cccc4F)c(F)cc23)C(C)C1
16.6

Name the reported viability, T/C value associated with the molecule Cn1ncnc1[C@H]1c2n[nH]c(=O)c3cc(F)cc(c23)N[C@@H]1c1ccc(F)cc1 + CC1OCC2(CCN(c3cnc(Sc4ccnc(N)c4Cl)c(N)n3)CC2)C1N
12

* * *

- System: LG0567-F671-PDC KRAS tumor spheroid viability
- assay_text: Anticancer human tumor LG0567-F671-PDC cell line growth inhibition [KRAS2];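 note: drug exposure lasted seven days after spheroids formed for three days; 100% = DMSO vehicle control viability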
- test_context: second compound 1 µM; first compound 0.1 µM; stronger effect = lower value; spheroids with HUVEC and MSC
readout_label: viability, T/C (%)
Please give a number only; it is taken to be in %.

Name the reported viability, T/C value associated with the compound Cn1ncnc1[C@H]1c2n[nH]c(=O)c3cc(F)cc(c23)N[C@@H]1c1ccc(F)cc1 + C=CC(=O)N1CCN(c2nc(=O)n(-c3c(C)ccnc3C(C)C)c3nc(-c4c(O)cccc4F)c(F)cc23)C(C)C1
22.8

Name the reported viability, T/C value associated with the compound Cn1ncnc1[C@H]1c2n[nH]c(=O)c3cc(F)cc(c23)N[C@@H]1c1ccc(F)cc1 + CC1OCC2(CCN(c3cnc(Sc4ccnc(N)c4Cl)c(N)n3)CC2)C1N
23.3

Name the reported viability, T/C value associated with the compound CC(=O)OC12COC1CC(O)C1(C)C(=O)C(O)C3=C(C)C(OC(=O)C(O)C(NC(=O)OC(C)(C)C)c4ccccc4)CC(O)(C(OC(=O)c4ccccc4)C21)C3(C)C (stereo not given) + C=CC(=O)N1CCN(c2nc(=O)n(-c3c(C)ccnc3C(C)C)c3nc(-c4c(O)cccc4F)c(F)cc23)C(C)C1
10.1

Name the reported viability, T/C value associated with the compound CC(C)n1nc(-c2ccc3oc(N)nc3c2)c2c(N)ncnc21 + CNCc1ccccc1-c1csc(C(C)Nc2nc(C)nc3cc(OC)c(OC)cc23)c1
23.2

Name the reported viability, T/C value associated with the compound CC1OCC2(CCN(c3cnc(Sc4ccnc(N)c4Cl)c(N)n3)CC2)C1N (stereo not given) + C=CC(=O)N1CCN(c2nc(OCC3CCCN3C)nc3c2CCN(c2cccc4cccc(C)c24)C3)CC1CC#N
15.6

Name the reported viability, T/C value associated with the compound COC(=O)c1ccc2c(C(=Nc3ccc(N(C)C(=O)CN4CCN(C)CC4)cc3)c3ccccc3)c(O)[nH]c2c1 + C=CC(=O)N1CCN(c2nc(OCC3CCCN3C)nc3c2CCN(c2cccc4cccc(C)c24)C3)CC1CC#N
26.3

Name the reported viability, T/C value associated with the compound CCN1CCN(Cc2ccc(Nc3ncc(F)c(-c4cc(F)c5nc(C)n(C(C)C)c5c4)n3)nc2)CC1 + C=CC(=O)N1CCN(c2nc(=O)n(-c3c(C)ccnc3C(C)C)c3nc(-c4c(O)cccc4F)c(F)cc23)C(C)C1
17.3

Name the reported viability, T/C value associated with the compound CC(C)NCC(C(=O)N1CCN(c2ncnc3c2C(C)CC3O)CC1)c1ccc(Cl)cc1 (stereo not given) + C=CC(=O)N1CCN(c2nc(OCC3CCCN3C)nc3c2CCN(c2cccc4cccc(C)c24)C3)CC1CC#N
32.3

Name the reported viability, T/C value associated with the compound CC(C)n1nc(-c2ccc3oc(N)nc3c2)c2c(N)ncnc21 + CC1OCC2(CCN(c3cnc(Sc4ccnc(N)c4Cl)c(N)n3)CC2)C1N
3.58

Name the reported viability, T/C value associated with the compound O=C(c1cc(Cc2n[nH]c(=O)c3ccccc23)ccc1F)N1CCN(C(=O)C2CC2)CC1 + CNCc1ccccc1-c1csc(C(C)Nc2nc(C)nc3cc(OC)c(OC)cc23)c1
72.2

Name the reported viability, T/C value associated with the compound O=C(c1cc(Cc2n[nH]c(=O)c3ccccc23)ccc1F)N1CCN(C(=O)C2CC2)CC1 + C=CC(=O)N1CCN(c2nc(=O)n(-c3c(C)ccnc3C(C)C)c3nc(-c4c(O)cccc4F)c(F)cc23)C(C)C1
25.6

Name the reported viability, T/C value associated with the compound CC1COCCN1c1cc(-c2ccnn2C)c2ccnc(-c3ccn[nH]3)c2n1 (stereo not given) + COc1cc2nc(C)nc(NC(C)c3cc(N)cc(C(F)(F)F)c3)c2cc1OC1CCOC1
44.2

Name the reported viability, T/C value associated with the compound CCNC(=O)CC1N=C(c2ccc(Cl)cc2)c2cc(OC)ccc2-n2c(C)nnc21 (stereo not given) + COc1cc2nc(C)nc(NC(C)c3cc(N)cc(C(F)(F)F)c3)c2cc1OC1CCOC1
87.8

Name the reported viability, T/C value associated with the compound CC(C)NCC(C(=O)N1CCN(c2ncnc3c2C(C)CC3O)CC1)c1ccc(Cl)cc1 (stereo not given) + C=CC(=O)N1CCN(c2nc(=O)n(-c3c(C)ccnc3C(C)C)c3nc(-c4c(O)cccc4F)c(F)cc23)C(C)C1
26.5

Name the reported viability, T/C value associated with the compound CC1COCCN1c1cc(-c2ccnn2C)c2ccnc(-c3ccn[nH]3)c2n1 (stereo not given) + C=CC(=O)N1CCN(c2nc(=O)n(-c3c(C)ccnc3C(C)C)c3nc(-c4c(O)cccc4F)c(F)cc23)C(C)C1
14.3

Name the reported viability, T/C value associated with the compound CC1(C)CCC(CN2CCN(c3ccc(C(=O)NS(=O)(=O)c4ccc(NCC5CCOCC5)c([N+](=O)[O-])c4)c(Oc4cnc5[nH]ccc5c4)c3)CC2)=C(c2ccc(Cl)cc2)C1 + C=CC(=O)N1CCN(c2nc(OCC3CCCN3C)nc3c2CCN(c2cccc4cccc(C)c24)C3)CC1CC#N
33.5

Name the reported viability, T/C value associated with the compound CCN1CCN(Cc2ccc(Nc3ncc(F)c(-c4cc(F)c5nc(C)n(C(C)C)c5c4)n3)nc2)CC1 + CC1OCC2(CCN(c3cnc(Sc4ccnc(N)c4Cl)c(N)n3)CC2)C1N
17.7

Name the reported viability, T/C value associated with the compound COC(=O)c1ccc2c(C(=Nc3ccc(N(C)C(=O)CN4CCN(C)CC4)cc3)c3ccccc3)c(O)[nH]c2c1 + CNCc1ccccc1-c1csc(C(C)Nc2nc(C)nc3cc(OC)c(OC)cc23)c1
48.5

Name the reported viability, T/C value associated with the compound Cn1nccc1Nc1nccc(-c2cc3c(s2)C(C)(C)N(CCN2CCOCC2)C3=O)n1 + COc1cc2nc(C)nc(NC(C)c3cc(N)cc(C(F)(F)F)c3)c2cc1OC1CCOC1
68

Name the reported viability, T/C value associated with the compound O=C(c1cc(Cc2n[nH]c(=O)c3ccccc23)ccc1F)N1CCN(C(=O)C2CC2)CC1 + CC1OCC2(CCN(c3cnc(Sc4ccnc(N)c4Cl)c(N)n3)CC2)C1N
40
